Listed here: items and their measured melting point.

Item Cc1ccccc1-c1ccc(C(=O)N2Cc3ccc(C(=O)NCc4ccccc4)n3Cc3ccccc32)cc1C : provide melting point 138 to 141 °C

----------
Listed here: items and their measured melting point.

Item COCCc1nc2c(N)nc3c(c2n1CCOCCN(C)C(=O)Nc1ccccc1)CCCC3 : provide melting point 168 to 170 °C

Item COC(=O)c1cc(Br)c(C=O)o1 : provide melting point 83 to 84 °C

Item CCCCCCNC(=O)c1cccc2c1C1(COc3cc4c(cc31)OCCO4)C(=O)N2C (stereo not given) : provide melting point 172 to 173 °C

Item CCCCC[C@H]1CC[C@H](c2ccc(CC(=O)OCc3ccc(C#N)cc3)cc2)CC1 : provide melting point 85 °C

Item O=C(NC(=O)c1c(Cl)cccc1Cl)Nc1ccc(Cl)c(Cl)c1 : provide melting point 232 °C

Item CCOC(=O)CNC(=O)c1csc(NC(=N)N)n1 : provide melting point 190 °C

Item COc1ccc(S(=O)(=O)N(CC(F)(F)F)c2ccc(Cl)cc2Cc2c(F)cccc2F)cc1OC : provide melting point 70 °C

Item CC(=O)OCCc1nc2c(N)nc3ccccc3c2n1CC(C)C : provide melting point 187 to 189 °C

Item CC(C)(C)OC(=O)NCc1nc(C(=O)ON2C(=O)CCC2=O)cs1 : provide melting point 171 °C

Item COC(=O)c1ccc(SCc2cccc(Cl)c2)cn1 : provide melting point 75 to 77 °C

Item O=C1c2c(Cl)cccc2-n2cnc(-c3nnco3)c2[C@@H]2CCN12 : provide melting point 264 to 265 °C

Item CCOC(=O)CC(NCc1ccccc1)=C(C(C)=O)C(=O)OCC : provide melting point 87 to 88 °C

Item Cc1nc2scc(C)n2c(=O)c1CCN1CCC(Nc2nc3ccccc3n2Cc2ccc(F)cc2)CC1 : provide melting point 141 °C

Item O=C(O)CC[C@@H](Cc1ccc(OCc2ccccc2)cc1)NC(=O)CCCCCCc1ccccc1 : provide melting point 128 to 130 °C

Item Cc1cc(-c2cc3cc(OCCNC[C@H](O)COc4ccccc4Cl)ccc3o2)no1 : provide melting point 102 to 106 °C

Item CCOC(=O)C1=C(C)Nc2nc(N3CCOCC3)nc(N3CCOCC3)c2C1c1cccc2ccccc12 (stereo not given) : provide melting point 198 °C

Item CCN1c2ncc(C#Cc3ccccc3)cc2C(=O)N(C)c2cccnc21 : provide melting point 228 to 229 °C

----------
Listed here: items and their measured melting point.

{"compound": "c1cc(Cn2ccnc2)c2nccnc2c1", "valueMeasured": "121 °C"}
{"compound": "COc1ccc(CCOc2cccc(-c3cccc(C(=O)O)c3)n2)cc1OC", "valueMeasured": "147 to 148 °C"}
{"compound": "C(=Cc1ccnc2[nH]c3ccccc3c12)c1ccccc1", "valueMeasured": "> 220 °C"}
{"compound": "CC1=Nc2ccccc2CN1C1CCC(=O)NC1=O (stereo unspecified)", "valueMeasured": "78 to 85 °C"}
{"compound": "CCc1cc(Cl)cc2[nH]c(C(=O)O)cc(=O)c12", "valueMeasured": "282 to 283 °C"}

Item CCOC(=O)CN1C(=O)[C@@H](NC(=O)OC(C)(C)C)CCc2ccccc21 : provide melting point 99 to 101 °C

----------
testReadout: melting point

{"molecule": "COc1cc(C)c2c(c1)C(C(=O)O)=CCC2", "testReadout": "melting point", "valueMeasured": "149 to 150 °C"}
{"molecule": "C[C@@H](CO)Oc1ccc(-c2ccccc2)cc1", "testReadout": "melting point", "valueMeasured": "75 to 78 °C"}
{"molecule": "c1csc(N=C2SC[C@@H]3Cc4ccccc4CN23)c1", "testReadout": "melting point", "valueMeasured": "112 °C"}
{"molecule": "CC(C)(C)OC(=O)NC(CI)c1ccc(F)cc1 (stereo not drawn)", "testReadout": "melting point", "valueMeasured": "138 to 139 °C"}
{"molecule": "CNS(=O)(=O)OCC(=O)N(c1c(C)ccc2ccccc12)C1CCOC1=O (stereo not drawn)", "testReadout": "melting point", "valueMeasured": "190 to 194 °C"}

Item Cc1nc2ccc(Cl)cc2s1 : provide melting point 85 to 86 °C

Item Cc1ccc(N2N=C3c4ccncc4CCC3CC2=O)cc1 (stereo not drawn) : provide melting point 152 to 153 °C

Item CC(=O)C(=Cc1cccc(C#N)c1)C(C)=O : provide melting point 63 to 64 °C

Item COc1cc(CN(C(N)=S)[C@@H](COC(=O)C(C)(C)C)Cc2ccccc2)ccc1OCCN : provide melting point 49 °C

Item CNC1CCN(c2cc3c(cc2F)c(=O)c(C(=O)O)c2n3C(C)S2)C1 (stereo not drawn) : provide melting point 213 to 216 °C

Item O=C(CBr)Nc1cc(Cl)ccc1C(=O)O : provide melting point 156 to 158 °C

Item NC(=O)N(O)CCNC(=O)c1cccc(OCc2ccccc2)c1 : provide melting point 183 to 185 °C

Item CC1(C)Oc2cc3nonc3cc2C(N2CCC(O)C2=O)C1O (stereo not drawn) : provide melting point 195 to 196 °C

----------
testReadout: melting point

Sample records with melting point:
{"compound": "CC(C)c1cccc(S(=O)(=O)n2c(CCCCC(=O)O)cc3cc(C(F)(F)F)ccc32)c1", "melting point": "119 °C"}
{"compound": "CCNc1ccc(C2(C)C(=O)Nc3cc(Cl)cc(Cl)c3C2=O)cc1 (stereo not given)", "melting point": "197 to 198 °C"}
{"compound": "COc1ccc(Sc2nc(-c3ccc(OC)cc3)cnc2N)cc1", "melting point": "149 to 151 °C"}
{"compound": "O=C(O)C1CSC(=S)N1 (stereo not given)", "melting point": "183 to 184 °C"}

// switching to the query compound
Item c1ccc(-c2csc3ncnc(NCc4ccco4)c23)cc1 : provide melting point 77 to 79 °C

----------
testReadout: melting point

Sample records with melting point:
{"molecule": "O=C(O)COc1cccc(OCCC(c2ccccc2)(c2ccccc2)c2ccccc2)c1", "melting point": "69 to 71 °C"}
{"molecule": "Fc1ccc(Nc2nc(OCC3CCCCC3)c3[nH]cnc3n2)cc1Cl", "melting point": "225 to 226 °C"}
{"molecule": "O=C(Nc1cccc(Oc2ccccc2)c1)c1ccn2c1CSC2c1cccnc1 (stereo not given)", "melting point": "144 °C"}
{"molecule": "CCN(CC)c1c(Cl)cc(-n2c(C(F)(F)F)nn(C)c2=S)cc1Cl", "melting point": "128 to 130 °C"}

Item CCOC(=O)C=C(C)C=CC=C(C)C=Cc1c(Cl)cc(OC)c(Cl)c1Cl : provide melting point 126 to 128 °C

----------
Listed here: items and their measured melting point.

Sample records with melting point:
{"compound": "O=[N+]([O-])c1cnc(Sc2nnc(O)n2-c2ccccc2)s1", "testReadout": "melting point", "valueMeasured": "188 to 190 °C"}
{"compound": "O=C1OC(c2ccc(Cl)c(S(=O)(=O)Cl)c2)c2ccccc21 (stereo unspecified)", "testReadout": "melting point", "valueMeasured": "158 to 159 °C"}
{"compound": "CCN1C(=O)CCCc2c(OC)ccc(Nc3ncc(Cl)c(Nc4ccc(N5CCOCC5)cc4OC)n3)c21", "testReadout": "melting point", "valueMeasured": "218 to 220 °C"}
{"compound": "CCc1nc2cc(NC(C)=O)c(Cl)cc2n1-c1ccc(CCNC(=O)NS(=O)(=O)c2ccc(C)cc2)cc1", "testReadout": "melting point", "valueMeasured": "125 to 133 °C"}

Item ClC1(CBr)C=CC=CN1 (stereo unspecified) : provide melting point 40 to 43 °C

Item CC(=O)NCc1ccc(C(=O)CBr)s1 : provide melting point 129 to 131 °C

----------
Listed here: items and their measured melting point.

Item NC(=O)[C@@H]1[C@H](NC(=O)/C(=N\OCC(=O)OCc2ccc([N+](=O)[O-])cc2)c2csc(NC(=O)CCl)n2)C(=O)N1OCC(=O)OCc1ccc([N+](=O)[O-])cc1 : provide melting point 147 to 153 °C

Item N#Cc1ccc(C(=O)NCc2nn(-c3ccccc3Cl)c(-c3ccc(Cl)cc3)c2C#N)cc1 : provide melting point 118 °C

Item CCN(CC)Cc1ccnc(F)c1C=NO : provide melting point 97 to 99 °C

Item CCN(CC)c1ccc2ccc(=O)oc2c1 : provide melting point 87.5 to 88 °C

Item Cc1ccc(S(=O)(=O)NCCCCOc2ccc(-n3cnnn3)cc2)cc1 : provide melting point 127 to 128 °C

Item CCN1C(=O)OCC1Cc1ccncc1 (stereo unspecified) : provide melting point 180 to 182 °C

Item CN1CCN(c2cccc(Oc3cc(=O)[nH]c4ccccc34)c2)CC1 : provide melting point 218 to 221 °C

Item COC(C)(C)C#Cc1ncn2c1CN(C)C(=O)c1cc(F)ccc1-2 : provide melting point 149 to 150 °C

Item CC(C)(C)[Si](C)(C)O[C@H]1C=C(I)C(=O)C1 : provide melting point 38.5 °C

Each recorded value in this set is attributed to a melting point compilation (Tetko et al.; mined from patent text by program, amines drawn as free bases though some values may be those of a salt).
